Biological target: Lysophosphatidic acid receptor 1 (Homo sapiens, UniProt Q92633)
Sequence (Q92633 whole entry): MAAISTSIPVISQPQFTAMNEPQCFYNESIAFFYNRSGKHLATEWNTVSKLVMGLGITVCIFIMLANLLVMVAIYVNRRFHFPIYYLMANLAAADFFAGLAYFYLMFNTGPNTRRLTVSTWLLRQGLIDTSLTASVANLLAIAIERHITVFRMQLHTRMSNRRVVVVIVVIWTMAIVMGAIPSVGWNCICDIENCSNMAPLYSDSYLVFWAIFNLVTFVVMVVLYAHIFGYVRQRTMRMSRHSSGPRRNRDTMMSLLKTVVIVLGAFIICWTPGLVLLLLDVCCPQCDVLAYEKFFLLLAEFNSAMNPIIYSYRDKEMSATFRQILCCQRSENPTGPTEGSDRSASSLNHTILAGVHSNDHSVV
Experiment: Inhibition of LPA-induced calcium transients in RH7777 rat hepatoma cells expressing LPA1 receptor
Format: functional, cell-based
pIC50: −log10 of the molar value.
measured.parameter: pIC50

CC/C=C/CCCCCCCCOP(=O)(O)O ... < 5.00
C=CCCCCCCCCOP(=O)(O)O ... < 5.00
CCCCC/C=C/CCCOP(=O)(O)O ... < 5.00
CCCCCCCCCCCCCCP(=O)(O)O ... ~5.00

Entry source: ChEMBL document CHEMBL1140336
